Biological target: T1, extracellular-domain-(ECD)-comprising fragment of human CDCP1 of SEQ ID NO: 30 (human, UniProt Q9H5V8 30-663)
T1 construct: also called CDCP1 ECD; CDCP1-ECD
T1 sequence: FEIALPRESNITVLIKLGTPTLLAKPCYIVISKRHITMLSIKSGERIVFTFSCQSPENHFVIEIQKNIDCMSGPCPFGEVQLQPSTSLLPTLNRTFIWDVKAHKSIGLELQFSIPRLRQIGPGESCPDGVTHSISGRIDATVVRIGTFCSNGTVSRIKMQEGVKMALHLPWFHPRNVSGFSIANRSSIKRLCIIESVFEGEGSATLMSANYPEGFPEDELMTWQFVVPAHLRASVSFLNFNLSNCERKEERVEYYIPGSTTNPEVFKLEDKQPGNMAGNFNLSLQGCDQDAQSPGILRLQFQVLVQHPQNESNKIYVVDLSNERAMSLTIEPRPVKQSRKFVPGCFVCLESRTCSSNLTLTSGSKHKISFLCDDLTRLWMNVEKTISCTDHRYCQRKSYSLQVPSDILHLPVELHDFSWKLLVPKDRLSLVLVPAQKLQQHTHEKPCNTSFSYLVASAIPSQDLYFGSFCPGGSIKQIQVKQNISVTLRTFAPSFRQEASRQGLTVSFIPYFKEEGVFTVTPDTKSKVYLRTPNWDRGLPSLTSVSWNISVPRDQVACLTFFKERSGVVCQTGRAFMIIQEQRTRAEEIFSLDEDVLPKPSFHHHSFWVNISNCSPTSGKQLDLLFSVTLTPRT
Assay: SPR (Biacore T100), antibody captured, CDCP1 ECD as analyte, 25 C, Langmuir 1:1
Protocol: After conjugation, different anti-CDCP1 antibodies were injected at 25° C. at a flow rate of 5 μL/min, followed by a dilution series (0 nM to 1000 nM) of CDCP1 ECD at 30 μL/min. As running buffer for the binding experiment PBS/0.1% BSA was used. The chip was then regenerated with a 60s pulse of 10 mM glycine-HCl, pH 2.0 solution. Calculation of thermodynamic parameters (KD, binding constant) and kinetic parameters (kₒₙ rate, koff rate) were calculated using a Langmuir 1:1 binding model.
Hi there, I'd appreciate the recorded t½ diss. for every entry that follows.
The response must be a number in min with no trailing unit.

Recorded result, Humanized CUB4 Antibody No. 102 (antibody, IgG1, V domains shown, Only variable domains are tied to the antibody; Human constant region, preferably IgG1; also called hHC4-H / hLC-b) VH: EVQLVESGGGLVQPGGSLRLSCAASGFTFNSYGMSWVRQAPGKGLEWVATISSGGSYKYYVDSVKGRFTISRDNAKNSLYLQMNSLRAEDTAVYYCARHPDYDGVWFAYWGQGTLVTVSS VL: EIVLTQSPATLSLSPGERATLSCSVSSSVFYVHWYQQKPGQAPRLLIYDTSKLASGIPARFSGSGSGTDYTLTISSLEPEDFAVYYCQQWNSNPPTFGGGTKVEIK , t½ diss.: 11

Recorded result, Humanized CUB4 Antibody No. 47 (antibody, human IgG1, V domains shown, Only variable domains are tied to the antibody; also called humanized anti-CDCP1 antibody 47; hHC4-H / hLC-K) VH: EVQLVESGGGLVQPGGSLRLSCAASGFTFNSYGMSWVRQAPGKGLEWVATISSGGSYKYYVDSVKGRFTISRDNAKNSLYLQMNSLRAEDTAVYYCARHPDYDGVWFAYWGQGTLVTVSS VL: EIVLTQSPATLSLSPGERATLSCRASSSVFYLHWYQQKPGQAPRLWIYDTSKLASGIPARFSGSGSGTDFTLTISSLEPEDFAVYYCQQWNSNPPTFGGGTKVEIK , t½ diss.: 15.4

Recorded result, Humanized CUB4 Antibody No. 135 (antibody, IgG1, V domains shown, Human constant region, preferably IgG1; also called Antibody 135; hHC4-H / hLC-e) VH: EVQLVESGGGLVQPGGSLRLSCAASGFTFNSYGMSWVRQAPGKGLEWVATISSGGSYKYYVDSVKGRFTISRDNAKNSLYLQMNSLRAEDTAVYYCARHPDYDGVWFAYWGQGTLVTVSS VL: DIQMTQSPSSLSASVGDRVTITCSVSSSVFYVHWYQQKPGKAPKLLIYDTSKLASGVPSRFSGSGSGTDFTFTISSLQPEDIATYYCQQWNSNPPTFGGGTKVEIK , t½ diss.: 10.3
